# Test system: MS2 coat protein
# Test Summary: apparent KD of MS2 coat protein; designed switch direction (-1 OFF switch, 1 ON switch): -1; higher = weaker reporter binding
# Measurement Context: Eterna round: R95; input ligand: FMN 200 uM
Cut-off 100 nM on apparent KD of MS2 coat protein, inclusive. At or above means satisfied; below means not satisfied.

- AAACUCCCGGCAACCGGGAACAUGAGGAUCACCCAUGUGGCGUGACUCAUACGGGCUUUUUGUUCGUUUUAUUCACG [Xeisororer] (puzzle: Sensor v3, turn-off variant 1): not satisfied
- CCUUUGUCAGGAUAUCAGAAAACGCUCGUAGGGAGCGCAAAUGAGAAGGGACAUGAGGAUCACCCAUGUAAAGA [Edmareen] (puzzle: Exclusion 4): satisfied
- GGCCCUAAGGUCAGAUUCACAAGCUUUUUGCUCGUUUUAACAUGAGGAUCACCCAUGUCUAGUGGAUUUGAUCCUUU [Sensor v3, turn-off variant 2 (MOD of Indiso v.6)] (puzzle: Sensor v3, turn-off variant 2): not satisfied
- GGAAGUAGAAACCGAUCCUACAUGAGGAUCACCCAUGUAGCAAGACGUGCACGCGAAGCUCGUCAGACUACCAGAAA [salish99_TOv1_r3_009] (puzzle: Sensor v3, turn-off variant 1): satisfied
- GCAAAGGUAGGAUAUCCACUGUGCAACAUGAGGAUCACCCAUGUGGUUCUUACCAUAAUUGGAGAAGGGCCGUGCA [Inrariri] (puzzle: Exclusion 5): not satisfied

The measured values listed here are drawn from the supplement of paper PMC9170038.
